Task for the reader: assign each of the following molecules its reported log10 of Ki.
- target of assay: human NK3 receptor (Homo sapiens)
- Sequence (P29371 whole entry): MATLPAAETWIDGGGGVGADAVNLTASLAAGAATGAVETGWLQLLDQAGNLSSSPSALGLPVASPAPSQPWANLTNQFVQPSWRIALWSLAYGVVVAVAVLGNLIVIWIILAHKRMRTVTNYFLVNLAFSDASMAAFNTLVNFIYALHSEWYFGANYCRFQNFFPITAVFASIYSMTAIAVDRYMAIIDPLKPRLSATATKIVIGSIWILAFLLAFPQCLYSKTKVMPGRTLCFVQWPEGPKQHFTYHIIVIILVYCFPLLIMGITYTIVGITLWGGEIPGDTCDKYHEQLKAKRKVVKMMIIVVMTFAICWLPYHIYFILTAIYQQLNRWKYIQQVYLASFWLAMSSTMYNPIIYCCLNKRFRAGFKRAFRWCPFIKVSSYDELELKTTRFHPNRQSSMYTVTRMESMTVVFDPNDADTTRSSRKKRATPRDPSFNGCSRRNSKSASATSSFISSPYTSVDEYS
- test description: Binding potency of the test substances to NK3-receptors in vitro ([3H]-SR 142801 displacement)
- Design: expressed in transfected cells; host or cells: CHO cells (membrane preparation)
- run conditions: human NK3-receptor in CHO cell membranes, [3H]-SR 142801 (osanetant); average of at least three measurements; read-out: pKi, binding potency to NK3-receptors (converted)
// do not treat as linear: log10 of Ki, unit nM

Worked set:
1. CN(C)C(=O)C1(N2CCCCC2)CCN(CCC(CN(C)C(=O)c2cc(=O)c3ccccc3o2)c2ccc(Cl)c(Cl)c2)CC1 (stereo not shown) | 1.10
2. CN(C)C(=O)C1(N2CCCCC2)CCN(CCC(CN(C)C(=O)c2cccc(C(F)(F)F)c2)c2ccc(Cl)c(Cl)c2)CC1 (stereo not shown) | 0.50
3. Cc1ccc(C(=O)N(C)CC(CCN2CCC(C(=O)N(C)C)(N3CCCCC3)CC2)c2ccc(Cl)c(Cl)c2)cc1 (stereo not shown) | 1.60
4. CN(C)C(=O)C1(N2CCCCC2)CCN(CCC(CN(C)C(=O)c2ccc(Cl)c(S(N)(=O)=O)c2)c2ccc(Cl)c(Cl)c2)CC1 (stereo not shown) | 1.30
5. CN(C)C(=O)C1(N2CCCCC2)CCN(CCC(CN(C)C(=O)c2ccsc2)c2ccc(Cl)c(Cl)c2)CC1 (stereo not shown) | 1.40
6. CN(C)C(=O)C1(N2CCCCC2)CCN(CCC(CN(C)C(=O)CCc2ccc(O)cc2)c2ccc(Cl)c(Cl)c2)CC1 (stereo not shown) | 1.70

Alright, here's another molecule for you.
// log10 of Ki lookup, molecule = CN(CC(CCN1CCC(C(=O)N2CCCC2)(N2CCCCC2)CC1)c1ccc(Cl)c(Cl)c1)C(=O)c1cc(C#N)cc2ccccc12 (stereo not shown) , result: 1.60
